- System: 156681-154-R-J1 tumor spheroid viability
- measurement.description: Anticancer human tumor 156681-154-R-J1 patient-derived melanoma cell line growth inhibition
- details: second compound 30 pM; first compound 0.0949 µM; active compounds read low; spheroids with HUVEC and MSC
readout.kind: viability, T/C (%)

[
  {
    "compound": "O=C(c1cc(Cc2n[nH]c(=O)c3ccccc23)ccc1F)N1CCN(C(=O)C2CC2)CC1 + COc1cc2c(cc1O)CCNC21CSC2c3c(OC(C)=O)c(C)c4c(c3C(COC1=O)N1C(O)C3Cc5cc(C)c(OC)c(O)c5C(C21)N3C)OCO4",
    "target": "156681-154-R-J1 tumor spheroid viability",
    "reported.value": 83.5
  },
  {
    "compound": "Cn1ncnc1[C@H]1c2n[nH]c(=O)c3cc(F)cc(c23)N[C@@H]1c1ccc(F)cc1 + COc1cc2c(cc1O)CCNC21CSC2c3c(OC(C)=O)c(C)c4c(c3C(COC1=O)N1C(O)C3Cc5cc(C)c(OC)c(O)c5C(C21)N3C)OCO4",
    "target": "156681-154-R-J1 tumor spheroid viability",
    "reported.value": 97.9
  },
  {
    "compound": "CNCc1ccc(-c2cc(-c3nc(-c4ccc(S(=O)(=O)C(C)C)cc4)cnc3N)on2)cc1 + COc1cc2c(cc1O)CCNC21CSC2c3c(OC(C)=O)c(C)c4c(c3C(COC1=O)N1C(O)C3Cc5cc(C)c(OC)c(O)c5C(C21)N3C)OCO4",
    "target": "156681-154-R-J1 tumor spheroid viability",
    "reported.value": 99
  },
  {
    "compound": "Cc1sc2c(c1C)C(c1ccc(Cl)cc1)=NC(CC(=O)Nc1ccc(O)cc1)c1nnc(C)n1-2 (centres undefined) + COc1cc2c(cc1O)CCNC21CSC2c3c(OC(C)=O)c(C)c4c(c3C(COC1=O)N1C(O)C3Cc5cc(C)c(OC)c(O)c5C(C21)N3C)OCO4",
    "target": "156681-154-R-J1 tumor spheroid viability",
    "reported.value": 103
  }
]

----------
Items are presented alongside their recorded viability, T/C.
- System: 156681-154-R-J1 tumor spheroid viability
- measurement.description: Anticancer human tumor 156681-154-R-J1 cell line growth inhibition;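 note: spheroids exposed to compounds for 7 days before readout; percent of vehicle control viability where 100% = DMSO-treated spheroids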
- details: second compound 1 µM; first compound 0.0949 µM; active compounds read low; spheroids with HUVEC and MSC
readout.kind: viability, T/C (%)

[
  {
    "compound": "Cc1sc2c(c1C)C(c1ccc(Cl)cc1)=NC(CC(=O)Nc1ccc(O)cc1)c1nnc(C)n1-2 (centres undefined) + Cn1nnc2c(C(N)=O)ncn2c1=O",
    "readout.kind": "viability, T/C",
    "reported.value": 81.5
  },
  {
    "compound": "CNCc1ccc(-c2cc(-c3nc(-c4ccc(S(=O)(=O)C(C)C)cc4)cnc3N)on2)cc1 + Cn1nnc2c(C(N)=O)ncn2c1=O",
    "readout.kind": "viability, T/C",
    "reported.value": 98.8
  },
  {
    "compound": "Cn1ncnc1[C@H]1c2n[nH]c(=O)c3cc(F)cc(c23)N[C@@H]1c1ccc(F)cc1 + Cn1nnc2c(C(N)=O)ncn2c1=O",
    "readout.kind": "viability, T/C",
    "reported.value": 75
  },
  {
    "compound": "O=C(c1cc(Cc2n[nH]c(=O)c3ccccc23)ccc1F)N1CCN(C(=O)C2CC2)CC1 + Cn1nnc2c(C(N)=O)ncn2c1=O",
    "readout.kind": "viability, T/C",
    "reported.value": 92.1
  }
]
